Sourced from PubChem BioAssay AID617

Below is a list of entries, each paired with its recorded pIC50 value.
# System: E. coli BW25113 ΔtolC growth inhibition, OD615
# Method: growth inhibitors of E. coli tolC mutant, dose response, strain BW25113 ΔtolC::kan (AID 617);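 note: growth read after 20 h at 37 °C with compound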
In plain terms, pIC50 is the concentration in mol/L turned into minus its base-10 logarithm.

CCCCCCOC(=O)C(C#N)c1nc2ccccc2nc1N1CCN(C)CC1 (stereo unspecified) : 4.89

### Prompt What pIC50 value was documented for this molecule, `COC(=O)c1ccc(O)c(Sc2cc(C(=O)OC)ccc2O)c1` ?
### Response 5.72

### Prompt Tell me the measured pIC50 of `Brc1ccccc1Cn1c(-c2cncs2)nc2ccccc21` , please.
### Response 4.97

### Prompt Fill in the blank: the reported pIC50 of `CCOC(=O)c1c(-c2ccccc2)oc2ccc(OC(=O)N(C)C)cc12` is ____.
### Response 5.04

### Prompt // pIC50 lookup, key: `COc1ccc(CN(Cc2cc3cc4c(cc3[nH]c2=O)OCO4)C(=O)NC2CCCCC2)cc1`
### Response 4.69

### Prompt Request the reported pIC50 associated with `CCCCN(CCCC)C(=O)CSc1nnc(-c2cc(OC)c(OC)c(OC)c2)o1`
### Response 4.56

### Prompt Please look up its pIC50: `COc1ccc2nc3c(cc2c1)c(NC(=O)c1cccs1)nn3CC(C)C`
### Response 5.03

### Prompt What pIC50 value was documented for this molecule, CCN(c1ccccc1)S(=O)(=O)c1ccc(NCC2COc3ccccc3O2)nc1 (stereo unspecified) ?
### Response 4.83

### Prompt For the molecule `CCOC(=O)c1cc2cc(-c3c(C(=O)OCC)oc4cc(O)cc(O)c4c3=O)ccc2o1` , what pIC50 is on record?
### Response 5.12

### Prompt Given `Clc1cccc(NCc2nnc(SCc3ccccc3)o2)c1` , state its recorded pIC50.
### Response 5.02

### Prompt Can you share its pIC50? I mean this molecule: `CCCCCn1c(N2CCC(Cc3ccccc3)CC2)nc2c1c(=O)[nH]c(=O)n2C`
### Response 5.21

---

# Tested on: E. coli BW25113 ΔtolC growth inhibition, OD615
# Method: growth inhibitors of E. coli tolC mutant, dose response, strain BW25113 ΔtolC::kan (AID 617);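 note: growth read after 20 h at 37 °C with compound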
Measured endpoint: IC50

CCOC(=O)c1sc(NC(=O)CSc2n[nH]c(-c3ccccc3)n2)c(C#N)c1C : 1.69 µM
CCn1c(SCC(=O)Nc2nc(-c3ccc(C)cc3)cs2)nnc1-c1ccccc1O : 4.11 µM
Oc1c(C(c2ccco2)N2CCN(C(c3ccccc3)c3ccccc3)CC2)sc2ncnn12 (stereo unspecified) : 13.3 µM

### Prompt For the compound `COC(=O)c1cccc(-n2nnnc2SCC(=O)Nc2nc3c(s2)CCCC3)c1` , what IC50 is on record?
### Response 15.8 µM

### Prompt IC50 lookup needed for `O=S(=O)(Nc1nc2ccccc2s1)c1ccc(Br)s1` , thanks.
### Response 3.88 µM

### Prompt Query (compound): `CO[C@@]1(NC(=O)Cc2cccs2)C(=O)N2C(C(=O)O)=C(COC(N)=O)CS[C@@H]21` ; field requested: IC50
### Response 2 µM

### Prompt Request the reported IC50 associated with `CCCCC(=O)Nc1cccc(-c2nnc(-c3ccccc3)o2)c1`
### Response 16.9 µM

### Prompt I am curious: what IC50 value has been reported for `S=C(c1ccc(-c2ccc(Cl)c(Cl)c2)o1)N1CCOCC1` ?
### Response 11.2 µM

### Prompt Given the compound `CCOC(=O)c1c(NC(=O)CN(CC)CC)sc2c1CCC2` , what is its reported IC50?
### Response 13.8 µM

### Prompt Suppose we examine the compound Cc1nn(Cc2ccc(C(=O)N3c4ccc(F)cc4CCC3C)o2)c(C)c1Br (stereo unspecified) ; what IC50 value has been reported?
### Response 9.71 µM

### Prompt Value lookup for IC50; key = `CCNc1nc(SCc2ccccc2)nc(N2CCOCC2)n1`
### Response 17.8 µM
